Cited source for all entries: paper PMC4432651

system_under_test: GalNAc-T2 (Homo sapiens, UniProt Q10471)
Construct: made in house
Sequence (Q10471 75-571 limits assumed): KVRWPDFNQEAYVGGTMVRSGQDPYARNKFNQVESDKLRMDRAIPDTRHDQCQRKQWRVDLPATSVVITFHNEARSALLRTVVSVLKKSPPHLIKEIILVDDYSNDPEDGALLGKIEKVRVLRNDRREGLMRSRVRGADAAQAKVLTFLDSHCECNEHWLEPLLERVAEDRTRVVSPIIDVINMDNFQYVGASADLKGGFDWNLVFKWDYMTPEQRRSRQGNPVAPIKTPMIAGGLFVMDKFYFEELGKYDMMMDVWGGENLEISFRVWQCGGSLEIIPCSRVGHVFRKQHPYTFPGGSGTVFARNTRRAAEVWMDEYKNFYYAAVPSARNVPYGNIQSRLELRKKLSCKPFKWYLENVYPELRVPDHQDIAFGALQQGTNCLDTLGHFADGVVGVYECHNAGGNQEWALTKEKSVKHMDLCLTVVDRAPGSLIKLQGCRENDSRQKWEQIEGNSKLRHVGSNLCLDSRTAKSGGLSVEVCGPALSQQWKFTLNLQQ
experiment_summary: SAXS with Ensemble Optimization Method: GalNAc-T2 conformations/oligomers with ligands; further: values in Å
assay_setup: ligand molar ratio 1:10; GalNAc-T2 5 mg/ml; 25 mM TRIS pH 7.5, 10 mM MnCl2, 10 °C; maximum intramolecular distance, GNOM
Where a SMILES comes first, the peptide text is derived from it.
assay_readout: Dmax (Å)
I only need the number, in Å, no unit after it.

Incoming: State its Dmax for this compound: CC(=O)NCC(=O)N[C@H](C(=O)N[C@H](C(=O)N1CCC[C@H]1C(=O)N[C@@H](CO)C(=O)N1CCC[C@H]1C(=O)N[C@H](C(=O)N1CCC[C@H]1C(=O)N[C@H](C(=O)N[C@H](C(=O)N[C@@H](CO)C(=O)N[C@H](C(=O)N[C@H](C(=O)N[C@@H](CO)C(=O)N[C@@H](C)C(N)=O)[C@@H](C)O)[C@@H](C)O)[C@@H](C)O)[C@@H](C)O)C(C)C)[C@@H](C)O)[C@@H](C)O [MUC5AC] (Ac-GTTPSPVPTTSTTSA-NH2; N-terminus assumed)
Outgoing: 120
